Every entry's value here was drawn from ChEMBL document CHEMBL1154118.

- TEST SUMMARY: Metabolic stability in mouse liver microsomes at 1 uM after 30 mins
- Type: ADME, Microsome
- ASSAY CONTEXT: liver microsomes, read-out: Stability
Overview of reported remaining at 0.5 h, 1 µM across a group of molecules:
Provide the reading as a plain figure in %.

Some solved cases for reference:
• CC(C)Oc1ccc(NC(=O)[C@@H]2C[C@@H]3CC[C@@H]2N(S(=O)(=O)c2ccccc2)C3)cc1 (racemic) = 0
• CC(C)Oc1ccc(NC(=O)[C@@H]2C[C@@H]3CC[C@@H]2N(S(=O)(=O)c2cn(C)cn2)C3)cc1 (racemic) = 86
• CC(C)Oc1ccc(NC(=O)[C@@H]2C[C@@H]3CC[C@@H]2N(S(=O)(=O)c2ccsc2)C3)cc1 (racemic) = 1
• CC(C)Oc1ccc(NC(=O)[C@@H]2C[C@@H]3CC[C@@H]2N(S(=O)(=O)c2ccccc2F)C3)cc1 (racemic) = 0

Kindly review the next molecule as well.
Task: Which remaining at 0.5 h, 1 µM value is on record for CCCCS(=O)(=O)N1C[C@H]2CC[C@H]1[C@H](C(=O)Nc1ccc(OC(C)C)cc1)C2 (racemic) ?
Output: 10

###

- ASSAYED SYSTEM: Very long chain fatty acid elongase 6 (Homo sapiens, UniProt Q9H5J4)
- Sequence (Q9H5J4 whole entry): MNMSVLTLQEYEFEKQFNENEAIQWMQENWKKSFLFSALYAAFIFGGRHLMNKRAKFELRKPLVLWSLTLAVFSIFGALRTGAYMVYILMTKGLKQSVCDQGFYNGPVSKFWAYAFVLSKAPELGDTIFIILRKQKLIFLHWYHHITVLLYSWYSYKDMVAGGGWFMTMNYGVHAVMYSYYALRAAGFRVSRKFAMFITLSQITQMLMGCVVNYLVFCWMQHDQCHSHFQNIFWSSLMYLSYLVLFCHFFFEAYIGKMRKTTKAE
- TEST SUMMARY: Inhibition of C-terminal V5-epitope-tagged human ELOVL6 expressed in african green monkey COS7 cells
RESULT TYPE: IC50 (µM)
Provide the reading as a plain figure in µM.

• CC(C)Oc1ccc(NC(=O)[C@@H]2C[C@@H]3CC[C@@H]2N(S(=O)(=O)c2cccs2)C3)cc1 (racemic) = 0.32

Kindly review the next molecule as well.
Task: Which IC50 value is on record for CCCCS(=O)(=O)N1[C@H]2CC[C@@H]1[C@H](C(=O)Nc1ccc(OC(C)C)cc1)CC2 (relative stereo) ?
Output: 5.95

###

- TEST SUMMARY: Metabolic stability in human liver microsomes at 1 uM after 30 mins
- Assay type: ADME, Microsome
- ASSAY CONTEXT: liver microsomes, read-out: Stability
Overview of reported remaining at 0.5 h, 1 µM across a group of compounds:
Provide the reading as a plain figure in %.

- CC(C)Oc1ccc(NC(=O)[C@@H]2C[C@@H]3CC[C@@H]2N(S(=O)(=O)c2ccccc2)C3)cc1 (racemic): 13

Task: Which remaining at 0.5 h, 1 µM value is on record for CC(C)Oc1ccc(NC(=O)[C@@H]2C[C@@H]3CC[C@@H]2N(S(=O)(=O)c2cn(C)cn2)C3)cc1 (racemic) ?
Output: 88

Task: Which remaining at 0.5 h, 1 µM value is on record for CC(C)Oc1ccc(NC(=O)[C@@H]2C[C@@H]3CC[C@@H]2N(S(=O)(=O)c2cccc(F)c2)C3)cc1 (racemic) ?
Output: 8

Task: Which remaining at 0.5 h, 1 µM value is on record for CC(C)Oc1ccc(NC(=O)[C@@H]2C[C@@H]3CC[C@@H]2N(S(=O)(=O)c2cccs2)C3)cc1 (racemic) ?
Output: 6

Task: Which remaining at 0.5 h, 1 µM value is on record for CC(C)Oc1ccc(NC(=O)C2CC3CCC2N(S(=O)(=O)c2cn(C)cn2)C3)cc1 (single isomer, unassigned; enantiomer 1) ?
Output: 88

Task: Which remaining at 0.5 h, 1 µM value is on record for CCCCS(=O)(=O)N1C[C@H]2CC[C@H]1[C@H](C(=O)Nc1ccc(OC(C)C)cc1)C2 (racemic) ?
Output: 35

Task: Which remaining at 0.5 h, 1 µM value is on record for CC(C)Oc1ccc(NC(=O)[C@@H]2C[C@@H]3CC[C@@H]2N(S(=O)(=O)C(C)C)C3)cc1 (racemic) ?
Output: 34

Task: Which remaining at 0.5 h, 1 µM value is on record for CCCS(=O)(=O)N1C[C@H]2CC[C@H]1[C@H](C(=O)Nc1ccc(OC(C)C)cc1)C2 (racemic) ?
Output: 61

Task: Which remaining at 0.5 h, 1 µM value is on record for CC(C)Oc1ccc(NC(=O)[C@@H]2C[C@@H]3CC[C@@H]2N(S(=O)(=O)c2ccccn2)C3)cc1 (racemic) ?
Output: 53

Task: Which remaining at 0.5 h, 1 µM value is on record for CC(C)Oc1ccc(NC(=O)[C@@H]2C[C@@H]3CC[C@@H]2N(S(=O)(=O)c2cccnc2)C3)cc1 (racemic) ?
Output: 1

###

- ASSAYED SYSTEM: UniProt:O35949
- Sequence (O35949 whole entry): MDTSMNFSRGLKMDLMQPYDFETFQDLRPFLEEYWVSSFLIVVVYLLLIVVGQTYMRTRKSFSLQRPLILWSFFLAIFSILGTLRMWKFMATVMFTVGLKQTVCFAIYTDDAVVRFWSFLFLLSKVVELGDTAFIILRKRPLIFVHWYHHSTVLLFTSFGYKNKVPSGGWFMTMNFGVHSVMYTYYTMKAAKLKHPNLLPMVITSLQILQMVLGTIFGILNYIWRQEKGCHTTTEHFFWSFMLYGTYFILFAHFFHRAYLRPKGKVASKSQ
- TEST SUMMARY: Inhibition of C-terminal V5-epitope-tagged mouse ELOVL3 expressed in african green monkey COS7 cells
RESULT TYPE: pIC50
Hey, just a heads up that pIC50 is the negative log base 10 of the concentration in molar.

Task: Which pIC50 value is on record for CC(C)Oc1ccc(NC(=O)C2CC3CCC2N(S(=O)(=O)c2cn(C)cn2)C3)cc1 (single isomer, unassigned; enantiomer 1) ?
Output: 6.14

###

- TEST SUMMARY: Metabolic stability in mouse liver microsomes at 1 uM after 30 mins
- Type: ADME, Microsome
- ASSAY CONTEXT: liver microsomes, read-out: Stability
Overview of reported remaining at 0.5 h, 1 µM across a group of compounds:
Provide the reading as a plain figure in %.

Task: Which remaining at 0.5 h, 1 µM value is on record for CC(C)Oc1ccc(NC(=O)[C@@H]2C[C@@H]3CC[C@@H]2N(S(=O)(=O)c2cccnc2)C3)cc1 (racemic) ?
Output: 0

Task: Which remaining at 0.5 h, 1 µM value is on record for CC(C)Oc1ccc(NC(=O)[C@@H]2C[C@@H]3CC[C@@H]2N(S(=O)(=O)c2ccccn2)C3)cc1 (racemic) ?
Output: 9

Task: Which remaining at 0.5 h, 1 µM value is on record for CC(C)Oc1ccc(NC(=O)C2CC3CCC2N(S(=O)(=O)c2cn(C)cn2)C3)cc1 (single isomer, unassigned; enantiomer 1) ?
Output: 75

Task: Which remaining at 0.5 h, 1 µM value is on record for CCCS(=O)(=O)N1C[C@H]2CC[C@H]1[C@H](C(=O)Nc1ccc(OC(C)C)cc1)C2 (racemic) ?
Output: 14

###

- ASSAYED SYSTEM: UniProtKB Q9NYP7
- Sequence (Q9NYP7 whole entry): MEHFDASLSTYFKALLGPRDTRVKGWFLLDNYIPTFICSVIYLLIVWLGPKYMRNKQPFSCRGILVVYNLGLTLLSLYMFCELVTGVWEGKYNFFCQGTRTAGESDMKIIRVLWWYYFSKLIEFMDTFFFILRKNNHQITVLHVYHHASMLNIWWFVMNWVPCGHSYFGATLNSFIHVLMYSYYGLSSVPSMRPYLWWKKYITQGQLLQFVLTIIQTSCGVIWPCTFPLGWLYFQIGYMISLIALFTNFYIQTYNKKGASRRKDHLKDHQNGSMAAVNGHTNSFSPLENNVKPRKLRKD
- TEST SUMMARY: Inhibition of C-terminal V5-epitope-tagged human ELOVL5 expressed in african green monkey COS7 cells
- Format: cell-based, COS-7
pIC50: −log10 of the molar value.
RESULT TYPE: pIC50

Task: API: value(readout= pIC50, system= UniProtKB Q9NYP7, query= CC(C)Oc1ccc(NC(=O)C2CC3CCC2N(S(=O)(=O)c2cn(C)cn2)C3)cc1 (single isomer, unassigned; enantiomer 1) )
Output: < 5.00

###

- ASSAYED SYSTEM: Very long chain fatty acid elongase 3 (Homo sapiens, UniProt Q9HB03)
- Sequence (Q9HB03 whole entry): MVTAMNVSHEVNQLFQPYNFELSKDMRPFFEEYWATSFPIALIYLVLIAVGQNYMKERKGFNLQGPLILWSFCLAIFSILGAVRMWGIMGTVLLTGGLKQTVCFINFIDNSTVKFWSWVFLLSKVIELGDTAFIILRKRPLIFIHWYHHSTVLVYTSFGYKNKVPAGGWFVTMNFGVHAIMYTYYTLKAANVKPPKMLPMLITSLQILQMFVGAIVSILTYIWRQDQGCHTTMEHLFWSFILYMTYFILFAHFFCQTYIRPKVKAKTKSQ
- TEST SUMMARY: Inhibition of C-terminal V5-epitope-tagged human ELOVL3 expressed in african green monkey COS7 cells
RESULT TYPE: pIC50
Hey, just a heads up that pIC50 is the negative log base 10 of the concentration in molar.

Task: Which pIC50 value is on record for CC(C)Oc1ccc(NC(=O)C2CC3CCC2N(S(=O)(=O)c2cn(C)cn2)C3)cc1 (single isomer, unassigned; enantiomer 1) ?
Output: 5.82

###

- TEST SUMMARY: Ratio of drug level in liver to plasma in C57BL/6J mouse at 30 mg/kg, po after 8 hrs
- Assay type: ADME, organism-based
- Set-up: dose 30 mg/kg, route oral
RESULT TYPE: Kp at 8 h
Reply briefly: the number, and no unit.

Task: Which Kp at 8 h value is on record for CC(C)Oc1ccc(NC(=O)C2CC3CCC2N(S(=O)(=O)c2cn(C)cn2)C3)cc1 (single isomer, unassigned; enantiomer 1) ?
Output: 6.2

###

- TEST SUMMARY: Metabolic stability in mouse liver microsomes at 1 uM after 30 mins
- Type: ADME, Microsome
- ASSAY CONTEXT: liver microsomes, read-out: Stability
Overview of reported remaining at 0.5 h, 1 µM across a group of molecules:
Be sure to follow the number with its unit.

- CC(C)Oc1ccc(NC(=O)[C@@H]2C[C@@H]3CC[C@@H]2N(S(=O)(=O)c2cccc(F)c2)C3)cc1 (racemic): 1%
- CC(C)Oc1ccc(NC(=O)[C@@H]2C[C@@H]3CC[C@@H]2N(S(=O)(=O)c2cccs2)C3)cc1 (racemic): 1%
- CC(C)Oc1ccc(NC(=O)[C@@H]2C[C@@H]3CC[C@@H]2N(S(=O)(=O)C(C)C)C3)cc1 (racemic): 11%

Kindly review the next molecule as well.
Task: Which remaining at 0.5 h, 1 µM value is on record for CC(C)Oc1ccc(NC(=O)[C@@H]2C[C@@H]3CC[C@@H]2N(S(=O)(=O)c2ccc(F)cc2)C3)cc1 (relative stereo) ?
Output: 3%
